Please go through the items and note down their surviving fraction.
Test system: E21 (patient-derived glioblastoma stem cells of mesenchymal subtype);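 also: nuclei counted by high-content imaging of Hoechst-stained cells in laminin-coated 384-well plates, relative to 0.1% DMSO vehicle wells, with staurosporine as cell-death control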
test_protocol: surviving fraction (nuclei count normalised to DMSO); higher = more cells surviving (less toxic)
run_parameters: 333.3 nM; exposure time: 72 h
Counter-ions that a name gives are not always drawn.
Answers are plain numbers.

A selection of reference data follows.
compound	surviving fraction
CCOC(=O)OC(C)OC1=C(C(=O)Nc2ccccn2)N(C)S(=O)(=O)c2ccccc21 (stereo unspecified)	1.09
CCCCCCCCCCCCCC(=O)O[C@@H]1[C@@H](C)[C@@]2(O)[C@@H](C=C(CO)C[C@]3(O)C(=O)C(C)=C[C@@H]23)[C@@H]2C(C)(C)[C@]12OC(C)=O [Phorbol 12-myristate 13-acetate]	0.75
Nc1nc2n[nH]nc2c(=O)[nH]1	0.489
COc1cccc2c1C(=O)c1c(O)c3c(c(O)c1C2=O)C[C@@](O)(C(=O)CO)C[C@@H]3O[C@H]1C[C@H](N)[C@H](O)[C@H](C)O1 [Doxorubicin hydrochloride]	0.17
Clc1ccc(COC(Cn2ccnc2)c2ccc(Cl)cc2Cl)cc1 (stereo unspecified) [Econazole nitrate]	1.01
CCOC(=O)C1=C(C)NC(C)=C(C(=O)OCC)C1c1c(F)c(F)c(F)c(F)c1F	0.924

List surviving fraction for every entry below, keeping the order given.
1. COc1cc2c(cc1-c1c(C)noc1C)ncc1[nH]c(=O)n([C@H](C)c3ccccn3)c12
2. O=C(C1CC1)N1CC[C@@H](Cc2n[nH]c(=O)n2-c2ccc(-c3ccc4occc4c3)cc2)C1
3. CC(C)C[C@H](NC(=O)CNC(=O)c1cc(Cl)ccc1Cl)B(O)O
4. CCCCCCCCCCCCCCCC[N+](C)(C)CCN(Cc1ccc(OC)cc1)c1ncccn1 [Thonzonium bromide]
5. CN[C@@H]1[C@@H](O)[C@@H](O[C@@H]2[C@@H](O)[C@H](O[C@H]3OC(CN)=CC[C@H]3N)[C@@H](N)C[C@H]2N)OC[C@]1(C)O [Sisomicin sulfate]

// result
0.78
0.749
0.0187
0.962
1.03
